- assay: In vivo pharmacokinetic profile in the dog
- run-parameters: plasma
outcome-measure: half-life (h)
Write the number in h without appending the unit.

input: # return recorded half-life for entry Cc1c(Cc2cccnc2S(=O)(=O)c2ccc(F)cc2)c2cc(F)ccc2n1CC(=O)O
output: 5

###

The following compounds are listed with their measured pIC50 values.
- Tested on: eosinophils in human whole blood
- assay: Human whole blood eosinophil shape change assay (PGD2-induced)
- Format: cell-based
- run-parameters: Eosinophil; 10 nM PGD2, human whole blood; read-out: IC50 for effect on 10 nM PGD2-induced eosinophil shape change in human whole blood
Scale: negative log10 of molar concentration, which is what pIC50 denotes.

- Cc1c(Cc2cccn2S(=O)(=O)c2ccccc2)c2cc(F)ccc2n1CC(=O)O: 8.10

input: # return recorded pIC50 for entry Cc1c(Cc2cccnc2S(=O)(=O)c2ccccc2)c2cc(F)ccc2n1CC(=O)O
output: 8.05

input: # return recorded pIC50 for entry Cc1c(Cc2cccnc2S(=O)(=O)c2ccc(F)cc2)c2cc(F)ccc2n1CC(=O)O
output: 8.60

input: # return recorded pIC50 for entry Cc1c(Cc2cccnc2S(=O)(=O)c2ccc(Cl)cc2)c2cc(F)ccc2n1CC(=O)O
output: 8.00

input: # return recorded pIC50 for entry Cc1c(Cc2ccncc2S(=O)(=O)c2ccccc2)c2cc(F)ccc2n1CC(=O)O
output: 7.47

input: # return recorded pIC50 for entry Cc1c(Cc2ccc(S(C)(=O)=O)cc2)c2cc(F)ccc2n1CC(=O)O
output: 8.10
